Assay: Water solubility
Type: physicochemical
Settings: water, at 25° C.; read-out: Water solubility
property-name: solubility

* C[C@H](O)C(=O)N(C)c1c(I)c(C(=O)NC(CO)CO)c(I)c(C(=O)NC(CO)CO)c1I | ≥ 1000 mg/mL

Q: Please report the recorded solubility for "CCCN(C(=O)[C@H](C)O)c1c(I)c(C(=O)NC(CO)CO)c(I)c(C(=O)NC(CO)CO)c1I" .
Result: ≥ 1000 mg/mL

###

Assay: Water solubility
Format: physicochemical
Conditions: water; read-out: solubility in water
property-name: solubility (mg/mL)
Numbers only, in mg/mL.

Q: // lookup solubility for CN(C(=O)CO)c1c(I)c(C(=O)NCC(O)CO)c(I)c(C(=O)NCC(O)CO)c1I (stereo not shown)
Result: 3000

###

Experiment: Water solubility
Type: physicochemical
Details: water, temperature not stated; read-out: Water solubility
property-name: solubility

Q: I am curious: what solubility value has been reported for "CCCCN(C(=O)[C@H](C)O)c1c(I)c(C(=O)NC(CO)CO)c(I)c(C(=O)NC(CO)CO)c1I" ?
Result: ≥ 1000 mg/mL

###

Please provide measured solubility for the entries that follow.
Experiment: Water solubility
Type: physicochemical
Conditions: water, at 20° C., Table 1; read-out: Solubility in Water

* CN(C(=O)CO)c1c(I)c(C(=O)NCC(O)CO)c(I)c(C(=O)NCC(O)CO)c1I (centres unmarked) | > 1000 mg/mL

Turning to the following compound.
Q: Look up solubility for this compound: CC(=O)Nc1c(I)c(C(=O)N[C@H]2C(O)O[C@H](CO)[C@@H](O)[C@@H]2O)c(I)c(N(C)C(C)=O)c1I (some centres unmarked) [C, reference compound]
Result: ~800 mg/mL

###

Test: Solubility in organic solvents
Format: physicochemical
Conditions: methanol, organic solvent or mixture
property-name: solubility (mg/mL)
Numbers only, in mg/mL.

Q: Using the record for CN(C(=O)CO)c1c(I)c(C(=O)NCC(O)CO)c(I)c(C(=O)NCC(O)CO)c1I (stereo not shown) , report its solubility.
Result: 1000

###

Assay: Water solubility
Type: physicochemical
Conditions: water, at 20° C.; read-out: water solubility
property-name: solubility

Q: I would be grateful if you could share the reported solubility for C[C@H](O)C(=O)Nc1c(I)c(C(=O)NC(CO)CO)c(I)c(C(=O)NC(CO)CO)c1I [IOPAMIDOL hydrate, reference compound] .
Result: 627 mg/mL
